Hi there, I'd appreciate the recorded AC50 for every entry that follows.
Molecular target: human Muscarinic, M4 Receptor, CHRM4 (gene 1132)
Assay: NVS_GPCR_hM4: NovaScreen (NVS) G Protein-Coupled Receptor Assay for human Muscarinic, M4 Receptor (AID 2283274)
Procedure: NVS_GPCR_hM4 is a biochemical, single-readout assay that uses extracted gene-proteins from CHO in a cell-free assay. Measurements were taken 1 hour after chemical dosing in a 96-well plate.NVS_GPCR_hM4 is one of one assay component(s) measured or calculated from the NVS_GPCR_hM4 assay. […] This assay endpoint, NVS_GPCR_hM4, was analyzed in the positive analysis fitting direction relative to DMSO as the negative control and baseline of activity. […]
Inconclusive results are not listed. The source made the active and inactive calls. How the source made its calls: active means hit-call score of the fitted dose curve at least 0.9, where 1 is the maximum; inconclusive means response in the unintended direction; inactive means score below 0.9.

Structure notation: CC(=O)NC1(c2cccc(F)c2)CCN(CC[C@@]2(c3ccc(Cl)c(Cl)c3)CN(c3ccccc3)C(=O)CO2)CC1
Val: 13.9 µM (active)
//
Structure notation: CCCOc1sc(C(=O)N2CCC(c3cc(CN)ccc3F)CC2)c(C)c1Br
Val: 11.1 µM (active)
//
Structure notation: CCN(CC)CCNc1ccc(CNC=O)c2sc3ccc(OC)cc3c(=O)c12
Val: 8.13 µM (active)
//
Structure notation: NC(=O)N(O)[C@@H]1C=C[C@H](Oc2cccc(Oc3ccc(F)cc3)c2)C1
Val: 25 µM (active)

Under human Muscarinic, M4 Receptor, CHRM4 (gene 1132): AC50 value of CCCCCCCC(=O)O ?
6.66 µM (active)
